# measurementTarget: 4-1BB on transfected NF-κB Jurkat cells (UniProt Q07011 24-255, limits assumed)
# Sequence (Q07011 24-255 limits assumed): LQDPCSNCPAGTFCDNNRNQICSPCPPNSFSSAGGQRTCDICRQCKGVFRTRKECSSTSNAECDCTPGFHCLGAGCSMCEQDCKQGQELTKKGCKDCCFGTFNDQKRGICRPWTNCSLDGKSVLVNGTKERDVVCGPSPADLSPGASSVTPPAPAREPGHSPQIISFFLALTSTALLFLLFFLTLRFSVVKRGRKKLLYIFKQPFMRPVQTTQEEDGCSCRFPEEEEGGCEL
# procedureDetails: cell-based or functional assay

binder: 8E2 (ligand, also called 4-1BBL variant 8E2 (phagemid clone, bacterial supernatant)) 4-1BBL variant: ACPWAVSGARASPGSAASPRLREGPELSPDDPAGLLDLRQGMFAQLVAQNVLLIDGPLSWYPDPGLAGVSLTGGLSYKEDTKELVVAKAGVYYVFFQLELRRVVAFEGSGSVSLALHLQPLRSAAGAAALALTVDLPPASSEARNSAFGFQGRLLHLSAGQRLGVHLHTEARARHSWQLTQGATVLGLFRVTPEIPAGLPSPRSE
Reporter/Expression ratio: 2570
//
binder: 4E10 (ligand, also called 4-1BBL variant 4E10 (phagemid clone, bacterial supernatant)) 4-1BBL variant: ACPWAVSGARASPGSAASPRLREGPELSPDDPAGLLDLRQGMFAQLVAQNVLLIDGPLSWYPDPGLAGVSLTGGLSYKEDTKELVVAKAGVYYVFFQLELRRVVAREGSGSVSLALHLQPLRSAAGAAALALTVDLPPASSEARNSAFGFQGRLLHLSAGQRLGVHLHTEARARHAMQLTQGATVLGLFRVTPEIPAGLPSPRSE
Reporter/Expression ratio: 7830
